Test system: Fibroblast
run-description: Incucyte cell viability with human fibroblast; also: unitless GR value; below 1 slowed growth and below 0 cell loss
Format: toxicity, cell-based
measurement-setup: 24 h, 10 µM, compound concentration 10 uM, replicate number 1
So basically, if Growth Rate comes in under 0.5 it's Fulfilled, and if it's 0.5 or more it's Not fulfilled.

(Q) Check if Growth Rate falls below 0.5 for "CC(C)(c1ccc(OCc2cccc(COc3ccc(C(=N)N)cc3)c2)cc1)c1ccc(O[C@@H]2O[C@H](C(=O)O)[C@@H](O)[C@H](O)[C@H]2O)cc1.O=C(O)C(F)(F)F" .
(A) Not fulfilled

(Q) Check if Growth Rate falls below 0.5 for CCn1c(-c2nonc2N)nc2c(C#CC(C)(C)O)ncc(OCC3CCCNC3)c21 (stereo not drawn) .
(A) Fulfilled

(Q) Check if Growth Rate falls below 0.5 for "N=C(N)NCCC[C@H](NC(=O)CC1(CC(=O)N2CCN(C(c3ccccc3)c3ccccc3)CC2)CCCC1)C(=O)NCc1ccccc1.O=C(O)C(F)(F)F.O=C(O)C(F)(F)F" .
(A) Not fulfilled

(Q) Check if Growth Rate falls below 0.5 for "c1ccc2nc(N3CCNCC3)ccc2c1" .
(A) Not fulfilled

(Q) Check if Growth Rate falls below 0.5 for "C[C@H](c1ccnc(Nc2nc3ccc(-c4cc(N(C)C)ncn4)cc3[nH]2)c1)N1CCN(C(=O)CC(F)(F)F)CC1" .
(A) Fulfilled

(Q) Check if Growth Rate falls below 0.5 for "COc1cc(Nc2ccc([N+](=O)[O-])cc2C(=O)O)cc2ccccc12" .
(A) Not fulfilled

(Q) Check if Growth Rate falls below 0.5 for "CC(C)(O)c1coc(S(=O)(=O)NC(=O)Nc2c3c(cc4c2CCC4)CCC3)c1" .
(A) Not fulfilled

(Q) Check if Growth Rate falls below 0.5 for "CNc1ncc2cc(-c3ccc(-c4cccc(C)n4)cc3Cl)c(=O)n(C[C@H]3OC[C@H](N)CO3)c2n1" .
(A) Fulfilled

(Q) Check if Growth Rate falls below 0.5 for "CN1CCN([C@H]2CC[C@@H](n3cc(-c4ccc(Oc5ccccc5)cc4)c4c(N)ncnc43)CC2)CC1" .
(A) Fulfilled

(Q) Check if Growth Rate falls below 0.5 for "N=C(N)Nc1cc(C2CCNCC2)cc(C(F)(F)F)c1.O=C(O)C(F)(F)F.O=C(O)C(F)(F)F" .
(A) Not fulfilled

---

System: U2OS
run-description: Incucyte cell viability with U2OS; also: unitless GR value; below 1 slowed growth and below 0 cell loss
Type: toxicity, cell-based
measurement-setup: human, 6 h, 10 µM, compound concentration 10 uM, replicate number 1
measurement-name: Growth Rate
Form rule: numeric answer, no unit written next to it.

In [3]: df
Out[3]:
                                   compound  observed_result
0  CNc1nc(NCc2ncccn2)c2c(-c3ccc4ncccc4c3)c[nH]c2n1             0.78
1  C[C@@H]1C[C@H](N)C[C@H](c2ccncc2NC(=O)c2ccc(F)c(-c3c(F)cccc3F)n2)C1 [LGH-447]            -0.22
2  CC(C)CNc1nc(N2CCN(CC3CCCOC3)CC2)ncc1C(=O)NCc1ccccc1 (centres undefined)              0.3

Now for the compound whose Growth Rate we want.
Bench note, U2OS: "CSc1ccc(C[C@@H](C)C(=O)O)cc1Nc1nc(N2CC[C@H](N(C)C)C2)cc(C(F)F)c1C#N.O=C(O)C(F)(F)F" , Growth Rate reads 0.8
